Target Under Test: G3BP1 NTF2-like domain (1-139) F33/124W (human, UniProt Q13283 1-139, F33W | F124W)
Sequence (Q13283 1-139 F33W/F124W): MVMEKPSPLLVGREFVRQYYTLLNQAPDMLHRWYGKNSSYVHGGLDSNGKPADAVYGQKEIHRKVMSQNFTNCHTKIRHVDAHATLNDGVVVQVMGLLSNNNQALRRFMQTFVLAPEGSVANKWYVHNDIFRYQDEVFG
Experiment Description: fluorescence polarisation
Where no end group is shown, it is not given here. Ahx = NCCCCCC(=O)O
Parameter Measured: Kd (µM)
One number for each entry, in µM.

Query :: Find the measured Kd of {fluorescein-Ahx}-YNFIQDSMLDFE [Caprin1-derived dodecamer reporter peptide F*-YNFIQDSMLDFE] and report it.
Result :: 133
